PROTOCOL_DESCRIPTION: Example 3 plasma pharmacokinetics, normal hepatic function vs hepatic impairment
PROTOCOL_CONDITIONS: both, human, plasma, inhaled or intranasal, 160 mg, Cmax (Geometric mean), normal hepatic function; single intranasal 160 mg cocaine HCl
ASSAY_ENDPOINT: Cmax (ng/mL)
Give bare numbers, in ng/mL.

(Q) Returns the measured Cmax for the input compound. Input: COC(=O)[C@H]1[C@@H](OC(=O)c2ccccc2)C[C@@H]2CC[C@H]1N2C [Cocaine, cocaine, reference compound]
(A) 44.2

====

PROTOCOL_DESCRIPTION: Example 2 urinary pharmacokinetics, normal renal function vs severe renal impairment
PROTOCOL_CONDITIONS: both, human, urine, inhaled or intranasal, 160 mg, Renal Clearance, CLr (geometric mean), severe renal impairment; single intranasal 160 mg cocaine HCl
ASSAY_ENDPOINT: CL renal (mL/min)
Numbers only, in mL/min.

(Q) // returns reported CL renal for input COC(=O)[C@H]1[C@@H](OC(=O)c2ccccc2)C[C@@H]2CC[C@H]1N2C [Cocaine, cocaine, reference compound]
(A) 17.3
